- Test system: PBMC
- assay_notes: IFNg/IL-5 dual ELISPOT after 14 day in vitro stimulation of PBMC with Tau peptides
- Format: cell-based, human
Where no end group is shown, it is not given here. [ ]: non-standard residue; d: D form. pT = C[C@@H](OP(=O)(O)O)[C@H](N)C(=O)O; pS = N[C@@H](COP(=O)(O)O)C(=O)O
Rule for this label: 1.0 means PD/HC > 50 Ratio of % Responders is less than 1; 0.0 means PD/HC > 50 Ratio of % Responders is at least 1.

KKIETHKLTFRENAKA (listed as Homo sapiens) [Tau 16-mer, start 369]: 0.0
KVAVVRXPPKSPSSAK: 0.0
GQKGQANATRIPAKTP (listed as Homo sapiens) [Tau 16-mer, start 161]: 0.0
DFKDRVQSKIGSLDNI (DFKDRVQSKIG[pS]LDNI; listed as Homo sapiens) [Tau 16-mer, start 345]: 1.0
IKHVPGGGSVQIVYKP (listed as Homo sapiens) [Tau 16-mer, start 297]: 0.0

PD/HC > 50 Ratio of % Responders strictly < 1 for this sequence? DFKDRVQSKIGZLDNI 0.0

PD/HC > 50 Ratio of % Responders strictly < 1 for this sequence? GDTSPRHLSNVSSTGS (listed as Homo sapiens) [Tau 16-mer, start 401] 1.0

PD/HC > 50 Ratio of % Responders strictly < 1 for this sequence? SVQIVYKPVDLSKVTS (listed as Homo sapiens) 1.0

PD/HC > 50 Ratio of % Responders strictly < 1 for this sequence? PAPKXPPSSGEPPKSG (PAPK[pT]PPSSGEPPKSG) 0.0

PD/HC > 50 Ratio of % Responders strictly < 1 for this sequence? KTDHGAEIVYKSPVVS (listed as Homo sapiens) [Tau 16-mer, start 385] 0.0

PD/HC > 50 Ratio of % Responders strictly < 1 for this sequence? PMPDLKNVKSKIGZTE 0.0

PD/HC > 50 Ratio of % Responders strictly < 1 for this sequence? ATLADEVSASLAKQGL (listed as Homo sapiens) [Tau 16-mer, start 426] 0.0

PD/HC > 50 Ratio of % Responders strictly < 1 for this sequence? VDLSKVTSKCGSLGNI (listed as Homo sapiens) [Tau 16-mer, start 313] 0.0

PD/HC > 50 Ratio of % Responders strictly < 1 for this sequence? DRSGYSSPGZPGXPGS 0.0

PD/HC > 50 Ratio of % Responders strictly < 1 for this sequence? SLEDEAAGHVTQARMV (listed as Homo sapiens) [Tau 16-mer, start 113] 0.0

---

- System: PBMC
- assay_notes: IFNg/IL-5 dual ELISPOT after 14 day in vitro stimulation of PBMC with Tau peptides
- Type: cell-based, human
- assay_conditions: across all cohorts
measured_metric: Frequency of response
Lab note: write the figure by itself, no unit.

DRSGYSSPGZPGXPGS: 17.0

Read the entry DFKDRVQSKIGZLDNI and write its reported Frequency of response. 13.2

Read the entry KKIETHKLTFRENAKA (listed as Homo sapiens) [Tau 16-mer, start 369] and write its reported Frequency of response. 30.2

Read the entry GDTSPRHLSNVSSTGS (listed as Homo sapiens) [Tau 16-mer, start 401] and write its reported Frequency of response. 11.3

Read the entry GQKGQANATRIPAKTP (listed as Homo sapiens) [Tau 16-mer, start 161] and write its reported Frequency of response. 11.3

Read the entry PMPDLKNVKSKIGZTE and write its reported Frequency of response. 20.8
